We begin with a simple list: items and their reported melting point.
PROPERTY NAME: melting point

>  <SMILES REPRESENTATION>
Cl.Clc1ccc2c(Nc3ccc4c(c3)OCCO4)ncnc2c1

>  <PROPERTY NAME>
melting point

>  <RESULT>
304 to 306 °C

$$$$
>  <SMILES REPRESENTATION>
CC(C)(C)c1ccc(Oc2ncnc3cc(-c4ncccc4C(F)(F)F)ccc23)cc1

>  <PROPERTY NAME>
melting point

>  <RESULT>
162 to 163 °C

$$$$
>  <SMILES REPRESENTATION>
FC(F)(F)c1ccc(Nc2ncnc3c2CCN(c2ncccc2C(F)(F)F)C3)cn1

>  <PROPERTY NAME>
melting point

>  <RESULT>
144.5 to 150 °C

$$$$
>  <SMILES REPRESENTATION>
CC(=O)Nc1nc2c(Nc3ncnc4cc(Cl)ccc34)cccc2s1

>  <PROPERTY NAME>
melting point

>  <RESULT>
229.8 °C

$$$$

Just for reference, patent US20050165032A1 is where these values come from.
